# system-tested: recombinant sEH-P domain (N-terminal domain of sEH) (Homo sapiens, UniProt P34913)
# Sequence (P34913 1-222): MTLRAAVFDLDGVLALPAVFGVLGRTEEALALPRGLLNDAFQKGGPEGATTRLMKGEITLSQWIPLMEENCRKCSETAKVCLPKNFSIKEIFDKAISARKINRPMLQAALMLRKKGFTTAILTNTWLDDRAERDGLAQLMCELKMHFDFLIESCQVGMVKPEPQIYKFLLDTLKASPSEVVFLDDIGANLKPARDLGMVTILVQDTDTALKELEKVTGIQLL
# assay-remarks: FDP-based phosphatase assay, isolated sEH-P domain
# Format: biochemical
# cond: FDP substrate, recombinant sEH-P domain
readout-name: inhibitory potency toward sEH-P (SAR statement in words)

{"compound": "N#Cc1ccc(-c2nc(CCC(=O)O)oc2-c2ccccc2)cc1 [20g]", "result": "loss of activity"}
{"compound": "O=C(O)CCCc1nc(-c2ccc(Cl)c(Cl)c2)c(-c2cccnc2)o1 [28b]", "result": "not favored"}
{"compound": "O=C(O)CCCc1nc(-c2ccc(Cl)c(Cl)c2)c(-c2cccc(F)c2)o1 [28e]", "result": "slight preference"}
{"compound": "O=C(O)CCc1nc(-c2ccccc2F)c(-c2ccccc2)o1 [20a]", "result": "poorly tolerated"}
{"compound": "O=C(O)CCc1nc(-c2ccc(C(F)(F)F)cc2)c(-c2ccccc2)o1 [20f]", "result": "loss of activity"}
{"compound": "O=C(O)CCc1nc(-c2ccccc2Cl)c(-c2ccccc2)o1 [20b]", "result": "poorly tolerated"}
{"compound": "N#Cc1cccc(-c2oc(CCCC(=O)O)nc2-c2ccc(Cl)c(Cl)c2)c1 [28g]", "result": "slight preference"}
{"compound": "O=C(O)CCCc1nc(-c2ccc(Cl)c(Cl)c2)c(-c2ccncc2)o1 [28a]", "result": "not favored"}
